FYI, the data here is from the supplement of paper PMC12645437.

# target: T1, CRBN, Q96SW2;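 also: pooled lentiviral library of zinc finger degron-EGFP fusions in mCherry-positive Jurkat cells, FACS-sorted after compound exposure, with degron abundance counted by next-generation sequencing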
# T1 chain: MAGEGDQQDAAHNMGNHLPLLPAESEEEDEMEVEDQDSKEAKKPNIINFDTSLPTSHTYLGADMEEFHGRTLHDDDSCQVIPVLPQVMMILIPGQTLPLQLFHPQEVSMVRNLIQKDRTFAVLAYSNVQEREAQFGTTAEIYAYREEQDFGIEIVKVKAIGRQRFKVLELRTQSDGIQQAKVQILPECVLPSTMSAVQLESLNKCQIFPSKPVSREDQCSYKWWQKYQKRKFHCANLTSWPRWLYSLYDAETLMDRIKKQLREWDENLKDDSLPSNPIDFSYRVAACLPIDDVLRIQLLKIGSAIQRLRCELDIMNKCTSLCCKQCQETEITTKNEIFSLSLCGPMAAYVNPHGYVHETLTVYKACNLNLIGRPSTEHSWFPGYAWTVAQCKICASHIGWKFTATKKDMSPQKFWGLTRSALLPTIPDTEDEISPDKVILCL
# assayMethodText: log2 fold change of degron read counts, EGFP-low vs EGFP+ sorted cells (limma voom), compound-induced degradation; higher = more compound-induced degradation of the degron-EGFP fusion; degrons are variants of IKZF1/3 zinc finger 2; compound dose not given here
# reportedConditions: Jurkat; 18 h; compound: compound 33 (diphenyl IMiD analogue)
Over roughly 8,300 sequences, “log2 fold change of degron read counts, EGFP-low vs EGFP+ sorted cells (limma voom), compound-induced degradation” has its median near -1.1; the highest 2% begin near 3.2. The full list was thinned out, with the highest values kept by preference.
# label = class 1 if log2 fold change of degron read counts >= 0.2 else class 0

querySequence | group
FVCPVCGAKFTQKGNLLRHIKL [46F_47V_49P_50V_52G_53A_54K_55F_67L_, Q9UKT9] | class 0

Incoming: # check: log2 fold change of degron read counts of FKCDVCGAVFTQKGNLLRHIKL [46F_47K_49D_50V_52G_53A_54V_55F_67L_, Q9UKT9] is greater than or equal to 0.2
Outgoing: class 0

Incoming: Hi team, for FMCPVCGAKFTQKGNLLRHIKL [46F_47M_49P_50V_52G_53A_54K_55F_67L_, Q9UKT9] , is the recorded log2 fold change of degron read counts at or above 0.2?
Outgoing: class 1

Incoming: Reported log2 fold change of degron read counts reaches at least 0.2 for FRCPVCGAYFTQKGNLLRHIKL [46F_47R_49P_50V_52G_53A_54Y_55F_67L_, Q9UKT9] ?
Outgoing: class 1

Incoming: I'd appreciate it if you could say whether FDCPICGHFFTQKGNLLRHIKL [46F_47D_49P_50I_52G_53H_54F_55F_67L_, Q9UKT9] has log2 fold change of degron read counts at least equal to 0.2.
Outgoing: class 0

Incoming: Is it the case that FSCEICGAGFTQKGNLLRHIKL [46F_47S_49E_50I_52G_53A_54G_55F_67L_, Q9UKT9] has log2 fold change of degron read counts reaching or exceeding 0.2?
Outgoing: class 1
